// reported kon per item
# SYSTEM: T1, human TIGIT-His protein (human, UniProt Q495A1 22-141)
# T1 construct: Recombinant protein; also called human TIGIT-his tag; hTIGIT-His
# T1 sequence (looked up): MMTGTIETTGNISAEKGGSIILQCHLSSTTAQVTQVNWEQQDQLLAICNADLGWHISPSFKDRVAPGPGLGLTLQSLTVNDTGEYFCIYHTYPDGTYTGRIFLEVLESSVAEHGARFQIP
# EXPERIMENT SUMMARY: SPR (Biacore) affinity ranking, human TIGIT-His
Numeric answer only, unit M⁻¹ s⁻¹ assumed.

Some binders with recorded kon:
BINDER: 76D12B10-Hu04 (antibody, V domains shown, Humanized, VH.V4 + VK.V0) VH: EVQLQESGPGLVKPSETLSLTCAASGYSITSGYDWHWIRQPPGKGLEWMGFIRDSGSTVYNPSLKGRITISHDTSKNQFSLKLSSVTAADTAVYYCARGLFWYFDVWGQGTTVTVSS VL: DIQMTQSPSSLSASVGDRVTITCRTSENIFSYLAWYQQKPGKVPKLLIYNTKTLAEGVPSRFSGSGSGTDFTLTISSLQPEDVATYYCQHHYGNPLTFGQGTKLEIK
EXPERIMENTAL RESULT: 5.15e+06
--
BINDER: 76D12B10-Hu11 (antibody, V domains shown, Humanized, VH.V1 + VK.V2) VH: EVQLQESGPGLVKPSETLSLTCAVSGYSISSGYDWHWIRQPPGKGLEWIGFIRDSGSTVYNPSLKGRVTISHDTSKNQFSLKLSSVTAADTAVYYCARGLFWYFDVWGQGTTVTVSS VL: DIQMTQSPSSLSASVGDRVTITCRTSENIFSYLAWYQQKPGKVPKLLVHNTKTLAEGVPSRFSGSGSGTDFTLTISSLQPEDVATYYCQHHYGNPLTFGQGTKLEIK
EXPERIMENTAL RESULT: 3.62e+06
--
BINDER: 76D12B10-Hu15 (antibody, V domains shown, Humanized, VH.V5 + VK.V2) VH: EVQLQESGPGLVKPSETLSLTCAASGYSITSGYDWHWIRQPPGKKLEWMGFIRDSGSTVYNPSLKGRITISHDTSKNQFSLKLSSVTAADTAVYFCARGLFWYFDVWGQGTTVTVSS VL: DIQMTQSPSSLSASVGDRVTITCRTSENIFSYLAWYQQKPGKVPKLLVHNTKTLAEGVPSRFSGSGSGTDFTLTISSLQPEDVATYYCQHHYGNPLTFGQGTKLEIK
EXPERIMENTAL RESULT: 7.76e+06
--
BINDER: 76D12B10-Hu05 (antibody, V domains shown, Humanized, VH.V5 + VK.V0) VH: EVQLQESGPGLVKPSETLSLTCAASGYSITSGYDWHWIRQPPGKKLEWMGFIRDSGSTVYNPSLKGRITISHDTSKNQFSLKLSSVTAADTAVYFCARGLFWYFDVWGQGTTVTVSS VL: DIQMTQSPSSLSASVGDRVTITCRTSENIFSYLAWYQQKPGKVPKLLIYNTKTLAEGVPSRFSGSGSGTDFTLTISSLQPEDVATYYCQHHYGNPLTFGQGTKLEIK
EXPERIMENTAL RESULT: 5.92e+06

Input line: So what's the measured kon for this one? 76D12B10-Hu03 (antibody, V domains shown, Humanized, VH.V3 + VK.V0) VH: EVQLQESGPGLVKPSETLSLTCAVSGYSISSGYDWHWIRQPPGKGLEWMGFIRDSGSTVYNPSLKGRITISHDTSKNQFSLKLSSVTAADTAVYYCARGLFWYFDVWGQGTTVTVSS VL: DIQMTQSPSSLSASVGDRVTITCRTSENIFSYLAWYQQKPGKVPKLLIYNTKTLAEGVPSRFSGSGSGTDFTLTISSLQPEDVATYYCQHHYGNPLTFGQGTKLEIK
Output line: 1.05e+07

Measured values drawn from patent US11028172 for this set.
